Each entry below carries its recorded Release rate.
- Assay comment: Conversion rate of salt-form prodrugs to parent compound in mouse plasma
- Assay type: in vitro ADME
- Conditions: conversion to Compound 1, mouse plasma, 37 °C, 4 h

Use these answered entries as a reference point.
>  <Smiles notation>
CC(C)N(C[C@@H]1C(=O)O[C@H]2[C@H]1CC[C@@]1(C)C[C@]13CC[C@@](C)(O)[C@H]23)C(C)C

>  <Release rate>
24.4%

$$$$
>  <Smiles notation>
C[C@@]12CC[C@@H]3[C@H](OC(=O)[C@H]3CN3CCCCCCC3)[C@@H]3[C@]1(CC[C@@]3(C)O)C2

>  <Release rate>
25.4%

$$$$
>  <Smiles notation>
CCN(CC)C[C@@H]1C(=O)O[C@H]2[C@H]1CC[C@@]1(C)C[C@]13CC[C@@](C)(O)[C@H]23

>  <Release rate>
24.4%

$$$$

Now for the compound whose Release rate we want.
response.value for C[C@@]12CC[C@@H]3[C@H](OC(=O)[C@H]3CN3CCCCC3)[C@@H]3[C@]1(CC[C@@]3(C)O)C2 (field: Release rate) = 27.7%
